Test system: Caspase 3
Assay: Caspase 3 detection assay in SJSA1 cells
Format: cell-based
Details: 30 μM, SJSA1, 48 h, Caspase 3 activation over DMSO-treated cells
Bridge positions count the residues as written; N and C are the ends. Square brackets hold non-standard residues; d marks the D form. Peptide text beside a SMILES is read from it. R8 = C=CCCCCCC[C@@](C)(N)C(=O)O; Cba = N[C@@H](CC1CCC1)C(=O)O; hLeu = CC(C)CC[C@H](N)C(=O)O; S5 = C=CCCC[C@](C)(N)C(=O)O
recorded.endpoint: caspase 30 μM

* CC(=O)N[C@@H](CCC(=O)O)C(=O)N[C@H](C(=O)N[C@@H](Cc1ccccc1)C(=O)N[C@]1(C)CCCCCCC=CCCC[C@@](C)(C(=O)N[C@@H](CO)C(=O)N[C@H](C(=O)N[C@@H](CO)C(N)=O)C(C)C)NC(=O)[C@H](CC(C)C)NC(=O)[C@H](CCC(N)=O)NC(=O)[C@H](C)NC(=O)[C@H](Cc2c[nH]c3ccccc23)NC(=O)[C@H](Cc2ccc(O)cc2)NC(=O)[C@H](C(C)C)NC1=O)[C@@H](C)O [compound 130] (Ac-ETF[R8]VYWAQL[S5]SVS-NH2; staple 4-11) | 17
* CC(=O)N[C@@H](CC(C)C)C(=O)N[C@H](C(=O)N[C@@H](Cc1ccccc1)C(=O)N[C@]1(C)CCCCCCC=CCCC[C@@](C)(C(=O)N[C@@H](C)C(=O)N[C@@H](C)C(=O)N[C@@H](C)C(=O)N[C@@H](C)C(=O)N[C@@H](C)C(=O)N[C@H](C)C(N)=O)NC(=O)[C@H](CC(C)C)NC(=O)[C@H](CCC(N)=O)NC(=O)[C@H](C)NC(=O)[C@H](Cc2c[nH]c3cc(Cl)ccc23)NC(=O)[C@H](Cc2ccc(O)cc2)NC(=O)[C@H](C)NC1=O)[C@@H](C)O (single isomer, unassigned) | 29
* CC(=O)N[C@@H](C)C(=O)N[C@@H](CC(C)C)C(=O)N[C@H](C(=O)N[C@@H](Cc1ccccc1)C(=O)N[C@]1(C)CCCCCCC=CCCC[C@@](C)(C(=O)N[C@@H](CO)C(=O)N[C@@H](C)C(=O)N[C@@H](C)C(=O)N[C@H](C)C(N)=O)NC(=O)[C@H](CC2CCC2)NC(=O)[C@H](CCC(N)=O)NC(=O)[C@H](C)NC(=O)[C@H](Cc2c[nH]c3ccccc23)NC(=O)[C@H](Cc2ccc(O)cc2)NC(=O)[C@H](CCC(=O)O)NC1=O)[C@@H](C)O (single isomer, unassigned) | 30
* CC(=O)N[C@@H](CC(C)C)C(=O)N[C@H](C(=O)N[C@@H](Cc1ccccc1)C(=O)N[C@]1(C)CCCCCCC=CCCC[C@@](C)(C(=O)N[C@@H](C)C(=O)N[C@@H](C)C(=O)N[C@@H](Cc2ccccc2)C(=O)N[C@H](C)C(N)=O)NC(=O)[C@H](CC(C)C)NC(=O)[C@H](CCC(N)=O)NC(=O)[C@H](C)NC(=O)[C@H](Cc2c[nH]c3ccccc23)NC(=O)[C@H](Cc2ccc(O)cc2)NC(=O)[C@H](CCC(=O)O)NC1=O)[C@@H](C)O (single isomer, unassigned) [compound 218] | 18
* CC(=O)N[C@@H](CC(C)C)C(=O)N[C@H](C(=O)N[C@@H](Cc1ccccc1)C(=O)N[C@]1(C)CCCCCCC=CCCC[C@@](C)(C(=O)N[C@@H](CO)C(=O)N[C@@H](C)C(=O)N[C@@H](Cc2ccccc2)C(=O)N[C@@H](C)C(N)=O)NC(=O)[C@H](CC2CCC2)NC(=O)[C@H](CCC(N)=O)NC(=O)[C@H](C)NC(=O)[C@H](Cc2c[nH]c3ccccc23)NC(=O)[C@H](Cc2ccc(O)cc2)NC(=O)[C@H](CCC(=O)O)NC1=O)[C@@H](C)O [compound 242] (Ac-LTF[R8]EYWAQ[Cba][S5]SAFA-NH2; staple 4-11) | 18
* CC(=O)N[C@@H](CC(C)C)C(=O)N[C@H](C(=O)N[C@@H](Cc1ccccc1)C(=O)N[C@]1(C)CCCCCCC=CCCC[C@@](C)(C(=O)N[C@@H](CO)C(=O)N[C@@H](C)C(=O)N[C@@H](C)C(N)=O)NC(=O)[C@H](CC(C)C)NC(=O)[C@H](CCC(N)=O)NC(=O)[C@H](C)NC(=O)[C@H](Cc2c[nH]c3ccccc23)NC(=O)[C@H](Cc2ccc(O)cc2)NC(=O)[C@H](C)NC1=O)[C@@H](C)O [compound 11] (Ac-LTF[R8]AYWAQL[S5]SAA-NH2; staple 4-11) | 33.5
* CC(=O)N[C@@H](CC(C)C)C(=O)N[C@H](C(=O)N[C@@H](Cc1ccccc1)C(=O)N[C@]1(C)CCCCCCC=CCCC[C@@](C)(C(=O)N[C@@H](CO)C(=O)N[C@@H](C)C(=O)N[C@@H](C)C(N)=O)NC(=O)[C@H](CC2CCCCC2)NC(=O)[C@H](CCC(N)=O)NC(=O)[C@H](C)NC(=O)[C@H](Cc2c[nH]c3ccccc23)NC(=O)[C@H](Cc2ccc(O)cc2)NC(=O)[C@H](CCC(=O)O)NC1=O)[C@@H](C)O (single isomer, unassigned) | 31
* CC(=O)N[C@@H](CC(C)C)C(=O)N[C@H](C(=O)N[C@@H](Cc1ccccc1)C(=O)N[C@]1(C)CCCCCC/C=C/CCC[C@@](C)(C(=O)N[C@@H](CO)C(=O)N[C@@H](C)C(=O)N[C@@H](C)C(N)=O)NC(=O)[C@H](CCC(C)C)NC(=O)[C@H](CCC(N)=O)NC(=O)[C@H](C)NC(=O)[C@H](Cc2c[nH]c3ccccc23)NC(=O)[C@H](Cc2ccc(O)cc2)NC(=O)[C@H](C)NC1=O)[C@@H](C)O [compound 115] (Ac-LTF[R8]AYWAQ[hLeu][S5]SAA-NH2; staple (E) 4-11) | 32
